Entry source: the nanobody polyreactivity screen of Harvey et al. (2022)

assay: yeast display, Sf9 membrane polyspecificity reagent, FACS + sequencing; frameworks hold sequencing errors
measurementKind: polyreactivity (PSR sort gate)

Here are 4 sequences together with their reported answers.
QVQLQERGGGLVQTGGSLSLSCEASGTISYSDSMCWYRQAPRKERELVAAIARGGITNYAYSVKGRFTISRDNAKNTVYLQMNSLKPEDTAVYYCADLSSRYAQFDYWGQGTQVTVSS; low polyreactivity
QVQLVESGGGLVQAGGRLRLSCAASGTIFGPYAMGWYRQAPGKEREFVAAISRSGTRTNYADSVKGRFTISRDNAKNTVYLQMNSLKPEDTAVYYCAAGYYGPDPRNRYRYNYWGQGTQVTVSS; high polyreactivity
QVQHVESGRCLFQAGGSLRLSCAASGSTFYNNALGWYRQAPGKERELVAVITDSGGRTYYADSVKGRFTISRDNAKNSVKLQMNSLKPEDCAVYYCAADIGYDVYNDYDYWGQGTQVTVSS; low polyreactivity
QVQLGESGGGLVQAGGSLRLSCAASGGIFAENAIGRYRQAPGKERELVAAINGGGSTKYADSVKGRFTISRDNAKNTVYLQMNSLKPEDTAVYYCAADPSVPRQVDYWGQGTLVTVSS; low polyreactivity

Proceed to the following item.
Looking for the measured polyreactivity (PSR sort gate) of QVQLVESGGGLVQAGGSLRLSCASSGGTFVTNAMGWYRQAPAKERELVAAISYDGGITYYADSVKGRFTISRDNAKNTVYLKMNSLKPEDTAVYYGAAYRRYRNWFNYWGQGTQVTVSS , can you help?
high polyreactivity

====

assay: yeast display, Sf9 membrane polyspecificity reagent, FACS + sequencing; frameworks hold sequencing errors
measurementKind: polyreactivity (PSR sort gate)

QVQLVESGGGLVQAGGSLRLSCAASGSIFGFNAMGWYRQAPGKEREFVAAISKSGGSTYYADSVKGRFTISCDNAKNTVYLQMNSLKPEDTAVYYCNAKSRHYEPYDYWGQGTQVTVSS; high polyreactivity
QVQLVESGGGLVQAGGSLRLSCAASGSIFGRYGAMGWYRQAPGKERELVAAIRTSGVSTYYADSVKGRFTISRDNAKKNVYLQMNSLKPEDTAVYYCAKGYTSYNLGKYGYWGQGTQVTVSS; high polyreactivity
QVHLVESGGGLVQAGGSLRLSCAASGSNIYNNAMGWYRQAPGTERELVAAIRSTGTRTYYADSVKGRFTISRDNAKNPVNLQMNSLKPEDTAVYYCAVGDYGLWSYDYWGQGTQVTVSS; low polyreactivity
QVQLVESGGGLVQAGGSLRLSCAASGNIFADYVMGWYRQAPGKERELVAAIDKSGGRTYYADSVKGRFTISRDNEKNNVYLQMNILKPEDTAVYYCSAYDRYRRMDYWGQGTQVTVSS; high polyreactivity
QVQLVESGGGIVQAGGSLRVSCAASGRTYLRNAMGWSRQAPGKERELVASITSRGGRTYADSVKGRFTISRDNAKNTVYLQMNSLKPEDTAVYYCDARRQAGLRYDYWGQGTQVTVSS; high polyreactivity
QVQLVESGGGLVQAGGSLRLSCAASGRIFFYYAMGWYRQAPGKERELVATISYSGGGTYYADSVKGRFTISRDNAKNTVYLQMNSLKPEDTAAYYCNARWGTPYYIQDFDYWGQGTQVTVSS; low polyreactivity
QVQLVESGGGLVQAGGSLRLSCAASGRIFVGYAMGRNIQAPGKERELVAAISRDGDNTFYADSVKGRFTISRDNAKNTVYLQMNSLKPEDTAVYYCAVDYWVWSCSAYAYDYYWGQVTQVTVSS; low polyreactivity
QVQLVESGGGLDHAGGSLRLSCADSGRIFNYNAMGWYIQAPGKESELVAAISWDGGSTYYADSVKGRFTISRDNAKNTVYLQINSLKPEDSAVYYCAAQYIWSSYRYYYWGQGTQVTVSS; high polyreactivity

Looking for the measured polyreactivity (PSR sort gate) of QVQLVESGVGLVQSGGSLRLSCAASGRISAQYTMGWYRQAPGIERELFAAITWSGTNTYYADSVKGRFTISRDNAKNTVYLQFNSLKPEDTAVYYCATAVYLVIFEYDYWGQGTHVTVSS , can you help?
low polyreactivity

Looking for the measured polyreactivity (PSR sort gate) of QVQLVESGGGLVQAGGSLRLSCAASGRIFVYYTMGWYRQAPGKERELVAAITGSGGSTYYADSVKGRFTISRDNAKNTVYLQMNSLKPEDTAVYYCAAQLGWWGSGYWGQGTQVTVSS , can you help?
high polyreactivity

Looking for the measured polyreactivity (PSR sort gate) of QVQLVESGGGLVQAGGSLRLICAASGRTFGYYTMGWYRPAPGKERELVARINYIGSSTYYADSVKGRFTISRDNAKNTVYLQMNSLKPEDTAVYYCNADNARGRSGVRRYYWGQGTQVTVSS , can you help?
high polyreactivity
